# assay_procedure: Caco-2 membrane permeability, improved method as used in the following Examples (96-well, 20 to 24 h preincubation)
# Format: in vitro ADME
# measurement_parameters: human, Caco-2, Caco-2
# Protocol: In the following Examples, membrane permeability was measured in accordance with the improved method established as described above. […] Each well was shaken at 5% CO2, 37° C., and 80 rpm, and 180 minutes after the initiation, the sample on the basal side was collected and the permeation amount was measured by LC/MS. The membrane permeability coefficient (Papp) was calculated from the permeation amount. […]
Positions of bridges follow the written chain, without caps; N, C: chain ends. Non-standard residues stand in square brackets, D forms with d. Residues, ends and D or L forms follow the SMILES beside them. *: point of attachment. NMeF = CN[C@@H](Cc1ccccc1)C(=O)O; hPhe = N[C@@H](CCc1ccccc1)C(=O)O; NMeL = CN[C@@H](CC(C)C)C(=O)O; NMeA = CN[C@@H](C)C(=O)O; Piperidide = C1CCN(*)CC1; Sar = CNCC(=O)O
assay_readout: Papp A→B at 180 min
Write your answer as a measured quantity: the number, then the unit.

Specify reported Papp A→B at 180 min for the molecule shown: CC(C)C[C@H]1C(=O)N[C@H](C(=O)N2CCCCC2)CC(=O)N(C)[C@@H](C)C(=O)N[C@@H](C(C)C)C(=O)N(C)[C@@H](CC(C)C)C(=O)N(C)[C@@H](Cc2ccccc2)C(=O)N[C@@H](C)C(=O)N(C)[C@@H](C)C(=O)N(C)[C@@H](CC(C)C)C(=O)N[C@@H](CCc2ccccc2)C(=O)N(C)CC(=O)N1C [pd318] ([NMeA]V[NMeL][NMeF]A[NMeA][NMeL][hPhe][Sar][NMeL]D-Piperidide; lactam N-11)
2.5 ×10⁻⁶ cm/s

----------
# assay_procedure: Caco-2 membrane permeability, improved method as used in the following Examples (96-well, 20 to 24 h preincubation)
# Assay type: in vitro ADME
# measurement_parameters: human, Caco-2, Caco-2
Positions of bridges follow the written chain, without caps; N, C: chain ends. Non-standard residues stand in square brackets, D forms with d. Residues, ends and D or L forms follow the SMILES beside them. *: point of attachment. hPhe(3-Cl) = N[C@@H](CCc1cccc(Cl)c1)C(=O)O; NMehPhe = CN[C@@H](CCc1ccccc1)C(=O)O; hhPhe = N[C@@H](CCCc1ccccc1)C(=O)O; NMeF = CN[C@@H](Cc1ccccc1)C(=O)O; NMeI = CC[C@H](C)[C@H](NC)C(=O)O; NMeL = CN[C@@H](CC(C)C)C(=O)O; NMeV = CN[C@H](C(=O)O)C(C)C; NMeA = CN[C@@H](C)C(=O)O; Piperidide = C1CCN(*)CC1; NBuGly = CCCCNCC(=O)O; Sar = CNCC(=O)O; CHF2 = FC(F)*
Would you mind telling me the reported Papp A→B at 180 min of each entry?
Numbers only, in ×10⁻⁶ cm/s.

- compound: "CC(C)C[C@H]1C(=O)N[C@H](C(=O)N2CCCCC2)CC(=O)N(C)[C@@H](C)C(=O)N[C@@H](CCc2cccc(Cl)c2)C(=O)N(C)[C@@H](CC(C)C)C(=O)N(C)[C@@H](CC(C)C)C(=O)N[C@@H](C)C(=O)N(C)[C@@H](Cc2ccccc2)C(=O)N(C)[C@@H](C(C)C)C(=O)N[C@@H]([C@@H](C)O)C(=O)N(C)CC(=O)N1C [pd356] ([NMeA][hPhe(3-Cl)][NMeL][NMeL]A[NMeF][NMeV]T[Sar][NMeL]D-Piperidide; lactam N-11)"
  value_unit: "×10⁻⁶ cm/s"
  Papp A→B at 180 min: 1.2
- compound: "CC[C@H](C)[C@@H]1NC(=O)[C@H](Cc2ccccc2)N(C)C(=O)CN(C)C(=O)C[C@@H](C(=O)N2CCCCC2)NC(=O)[C@H](C)N(C)C(=O)[C@H](CCCc2ccccc2)NC(=O)[C@H](CC(C)C)N(C)C(=O)[C@H](Cc2ccccc2)N(C)C(=O)CN(C)C(=O)[C@H]([C@@H](C)O)NC(=O)[C@H](CC(C)C)N(C)C1=O [pd367] ([Sar][NMeF]I[NMeL]T[Sar][NMeF][NMeL][hhPhe][NMeA]D-Piperidide; lactam N-11)"
  value_unit: "×10⁻⁶ cm/s"
  Papp A→B at 180 min: 1.5
- compound: "CC(C)C[C@@H]1NC(=O)[C@H](CC(C)C)N(C)C(=O)CN(C)C(=O)[C@H]([C@@H](C)O)NC(=O)[C@H](CC(C)C)N(C)C(=O)[C@H](C(C)C)NC(=O)[C@H](Cc2ccccc2)N(C)C(=O)[C@@H](C)NC(=O)C[C@@H](C(=O)N2CCCCC2)NC(=O)[C@H](CC(C)C)N(C)C(=O)[C@H](CCc2ccccc2)N(C)C1=O [pd321] ([dA][NMeF]V[NMeL]T[Sar][NMeL]L[NMehPhe][NMeL]D-Piperidide; lactam N-11)"
  value_unit: "×10⁻⁶ cm/s"
  Papp A→B at 180 min: 1.3

Tell me Papp A→B at 180 min reported for CCCCN1CC(=O)N(C)[C@@H](C)C(=O)N[C@H](C(=O)N2CCCCC2)CC(=O)N(C)[C@@H](C)C(=O)N[C@@H](Cc2ccc(OC(F)F)cc2)C(=O)N(C)[C@@H](CC(C)C)C(=O)N(C)[C@@H](Cc2ccccc2)C(=O)N[C@@H](CC(C)C)C(=O)N(C)[C@@H](CC(C)C)C(=O)N(C)[C@@H]([C@@H](C)CC)C(=O)N[C@@H]([C@@H](C)O)C1=O [pd479] ([NMeA]Y(CHF2)[NMeL][NMeF]L[NMeL][NMeI]T[NBuGly][NMeA]D-Piperidide; lactam N-11)
1

----------
# assay_procedure: Caco-2 membrane permeability, improved method as used in the following Examples (96-well, 20 to 24 h preincubation)
# Assay type: in vitro ADME
# measurement_parameters: human, Caco-2, Caco-2
Starred links: 1 amine or outer side, 2 acyl side, 3 side chain; linkers in the order of their positions; H or OH if unused. Positions of bridges follow the written chain, without caps; N, C: chain ends. Non-standard residues stand in square brackets, D forms with d. Residues, ends and D or L forms follow the SMILES beside them. ξ: configuration not given here. *: point of attachment. NMeF = CN[C@@H](Cc1ccccc1)C(=O)O; NMeGABA = CN(CCCC(=O)[*:2])[*:1]; dNMeF = CN[C@H](Cc1ccccc1)C(=O)O; ξThr(3R) = C[C@@H](O)C(N)C(=O)O; NMeL = CN[C@@H](CC(C)C)C(=O)O; NMeA = CN[C@@H](C)C(=O)O; Piperidide = C1CCN(*)CC1; Isopentyl = CC(C)CC*; Sar = CNCC(=O)O; tBu = CC(C)(C)*; CHF2 = FC(F)*
assay_readout: Papp A→B at 180 min (×10⁻⁶ cm/s)
Answers are plain numbers, in ×10⁻⁶ cm/s.

- compound: "CC(C)C[C@H]1C(=O)N[C@@H](Cc2ccc(OC(F)F)cc2)C(=O)N(C)[C@@H](CC(C)C)C(=O)N(C)[C@@H](Cc2ccccc2)C(=O)N[C@@H](COC(C)(C)C)C(=O)N(C)[C@@H](CC(C)C)C(=O)NC([C@@H](C)O)C(=O)N(C)[C@@H](C)C(=O)N(C)[C@@H](CC(C)C)C(=O)N[C@@H](C(=O)N2CCCCC2)CC(=O)N(C)CCCC(=O)N1C (stereo partly drawn) [pd478] ([NMeGABA][NMeL]Y(CHF2)[NMeL][NMeF]S(tBu)[NMeL][ξThr(3R)][NMeA][NMeL][dD]-Piperidide; lactam N-11)"
  assay_readout: "Papp A→B at 180 min"
  endpoint_value: 1.3

Now, please, on to the next compound.
Report Papp A→B at 180 min, nothing else, for this compound: CC(C)CCOC[C@@H]1NC(=O)[C@H](CC(C)C)N(C)C(=O)CN(C)C(=O)[C@H]([C@@H](C)O)NC(=O)[C@H](CC(C)C)N(C)C(=O)[C@H](CC(C)C)NC(=O)[C@H](Cc2ccccc2)N(C)C(=O)[C@@H](C)NC(=O)C[C@@H](C(=O)N2CCCCC2)NC(=O)[C@H](CC(C)C)N(C)C(=O)[C@@H](Cc2ccccc2)N(C)C1=O [pd300] ([dA][NMeF]L[NMeL]T[Sar][NMeL]S(Isopentyl)[dNMeF][NMeL]D-Piperidide; lactam N-11)
1.9

----------
# Test system: Caco-2 cells
# assay_procedure: Caco-2 membrane permeability, improved method as used in the following Examples (96-well, 20 to 24 h preincubation)
# Format: in vitro ADME
# measurement_parameters: human, Caco-2, 180 min
Positions of bridges follow the written chain, without caps; N, C: chain ends. Non-standard residues stand in square brackets, D forms with d. Residues, ends and D or L forms follow the SMILES beside them. *: point of attachment. Ethyl(2-morpholino) = C1CN(CC*)CCO1; NMeF = CN[C@@H](Cc1ccccc1)C(=O)O; NMeL = CN[C@@H](CC(C)C)C(=O)O; NMeAbu = CC[C@H](NC)C(=O)O; Piperidide = C1CCN(*)CC1; NBuGly = CCCCNCC(=O)O; Sar = CNCC(=O)O
assay_readout: Caco-2 (cm/s)
Give bare numbers, in cm/s.

In one line, give reported Caco-2 of the entry CCCCN1CC(=O)N(C)[C@@H](Cc2ccccc2)C(=O)N(C)[C@@H](CC(C)C)C(=O)N[C@@H](CC(C)C)C(=O)N(C)[C@@H](CC(C)C)C(=O)N[C@H](C(=O)N2CCCCC2)CC(=O)N(C)CC(=O)N(C)[C@@H](CC)C(=O)N[C@@H](C(C)C)C(=O)N(C)[C@@H](CC(C)C)C(=O)N[C@@H](COCCN2CCOCC2)C1=O [pd486] ([Sar][NMeAbu]V[NMeL]S(Ethyl(2-morpholino))[NBuGly][NMeF][NMeL]L[NMeL]D-Piperidide; lactam N-11) .
1.1e-06
